- Tested on: Mus musculus
- Experiment: Hypotensive effect in anesthetized wild type mouse assessed as change in mean arterial blood pressure at 1.4 uM/Kg, iv administered via right jugular vein measured for 60 mins
- Assay type: functional
- Condition: 1 h
Non-standard residues stand in square brackets, D forms with d. Residues, ends and D or L forms follow the SMILES beside them. Phe(4-Br) = N[C@@H](Cc1ccc(Br)cc1)C(=O)O; NMeCha = CN[C@@H](CC1CCCCC1)C(=O)O; hArg = N=C(N)NCCCC[C@H](N)C(=O)O; Cha = N[C@@H](CC1CCCCC1)C(=O)O; NMeL = CN[C@@H](CC(C)C)C(=O)O; Nle = CCCC[C@H](N)C(=O)O; Aib = CC(C)(N)C(=O)O
Experimental readout: Activity (mmHg)
Give the number; mmHg is assumed, so skip it.

Below are worked cases with known answers.
>  <Compound>
CCCC[C@H](NC(=O)[C@@H]1CCCN1C(=O)CNC(=O)[C@H](CCCCN)NC(=O)[C@H](Cc1c[nH]cn1)NC(=O)[C@H](CO)NC(=O)[C@H](CC1CCCCC1)NC(=O)[C@H](CCCCNC(=N)N)NC(=O)[C@@H]1CCCN1C(=O)[C@H](CCCNC(=N)N)NC(=O)[C@H](CCC(N)=O)NC(=O)[C@H](CCCNC(=N)N)NC(=O)[C@H](CCCNC(=N)N)NC(=O)[C@H](Cc1ccccc1)NC(=O)[C@@H](N)CCCCN)C(=O)NC(C)(C)C(=O)N[C@@H](Cc1ccc(Br)cc1)C(=O)O (H-KFRRQRP[hArg][Cha]SHKGP[Nle][Aib][Phe(4-Br)]-OH)

>  <Activity (mmHg)>
44.9

$$$$
>  <Compound>
CCCC[C@H](NC(=O)[C@@H]1CCCN1C(=O)CNC(=O)[C@H](CCCCN)NC(=O)[C@H](Cc1c[nH]cn1)NC(=O)[C@H](CO)NC(=O)[C@H](CC1CCCCC1)N(C)C(=O)[C@H](CCCCNC(=N)N)NC(=O)[C@@H]1CCCN1C(=O)[C@H](CCCNC(=N)N)NC(=O)[C@H](CCC(N)=O)NC(=O)[C@H](CCCNC(=N)N)NC(=O)[C@H](CCCNC(=N)N)NC(=O)[C@H](Cc1ccccc1)NC(=O)[C@@H](N)CCCCN)C(=O)NC(C)(C)C(=O)N[C@@H](Cc1ccc(Br)cc1)C(=O)O (H-KFRRQRP[hArg][NMeCha]SHKGP[Nle][Aib][Phe(4-Br)]-OH)

>  <Activity (mmHg)>
47.57

$$$$
>  <Compound>
CCCC[C@H](NC(=O)[C@@H]1CCCN1C(=O)CNC(=O)[C@H](CCCCN)NC(=O)[C@H](Cc1c[nH]cn1)NC(=O)[C@H](CO)NC(=O)[C@H](CC(C)C)NC(=O)[C@H](CCCCNC(=N)N)NC(=O)[C@@H]1CCCN1C(=O)[C@H](CCCNC(=N)N)NC(=O)[C@H](CCC(N)=O)NC(=O)[C@H](CCCNC(=N)N)NC(=O)[C@H](CCCNC(=N)N)NC(=O)[C@H](Cc1ccccc1)NC(=O)[C@@H](N)CCCCN)C(=O)NC(C)(C)C(=O)N[C@@H](Cc1ccc(Br)cc1)C(=O)O (H-KFRRQRP[hArg]LSHKGP[Nle][Aib][Phe(4-Br)]-OH)

>  <Activity (mmHg)>
40.45

$$$$
>  <Compound>
CCCC[C@H](NC(=O)[C@@H]1CCCN1C(=O)CNC(=O)[C@H](CCCCN)NC(=O)[C@H](Cc1c[nH]cn1)NC(=O)[C@H](CO)NC(=O)[C@H](CC1CCCCC1)N(C)C(=O)[C@H](CCCNC(=N)N)NC(=O)[C@@H]1CCCN1C(=O)[C@H](CCCNC(=N)N)NC(=O)[C@H](CCC(N)=O)NC(=O)[C@H](CCCNC(=N)N)NC(=O)[C@H](CCCNC(=N)N)NC(=O)[C@H](Cc1ccccc1)NC(=O)[C@@H](N)CCCCN)C(=O)NC(C)(C)C(=O)N[C@@H](Cc1ccc(Br)cc1)C(=O)O (H-KFRRQRPR[NMeCha]SHKGP[Nle][Aib][Phe(4-Br)]-OH)

>  <Activity (mmHg)>
28.83

$$$$
>  <Compound>
CCCC[C@H](NC(=O)[C@@H]1CCCN1C(=O)CNC(=O)[C@H](CCCCN)NC(=O)[C@H](Cc1c[nH]cn1)NC(=O)[C@H](CO)NC(=O)[C@H](CC1CCCCC1)NC(=O)[C@H](CCCNC(=N)N)NC(=O)[C@@H]1CCCN1C(=O)[C@H](CCCNC(=N)N)NC(=O)[C@H](CCC(N)=O)NC(=O)[C@H](CCCNC(=N)N)NC(=O)[C@H](CCCNC(=N)N)NC(=O)[C@H](Cc1ccccc1)NC(=O)[C@@H](N)CCCCN)C(=O)NC(C)(C)C(=O)N[C@@H](Cc1ccc(Br)cc1)C(=O)O (H-KFRRQRPR[Cha]SHKGP[Nle][Aib][Phe(4-Br)]-OH)

>  <Activity (mmHg)>
19.72

$$$$

Ask: Entry CCCC[C@H](NC(=O)[C@@H]1CCCN1C(=O)CNC(=O)[C@H](CCCCN)NC(=O)[C@H](Cc1c[nH]cn1)NC(=O)[C@H](CO)NC(=O)[C@H](CC(C)C)N(C)C(=O)[C@H](CCCNC(=N)N)NC(=O)[C@@H]1CCCN1C(=O)[C@H](CCCNC(=N)N)NC(=O)[C@@H]1CCC(=O)N1)C(=O)NC(C)(C)C(=O)N[C@@H](Cc1ccc(Br)cc1)C(=O)O , system Mus musculus: what Activity was measured?
Reply: 9.52

Ask: Entry CCCC[C@H](NC(=O)[C@@H]1CCCN1C(=O)CNC(=O)[C@H](CCCCN)NC(=O)[C@H](Cc1c[nH]cn1)NC(=O)[C@H](CO)NC(=O)[C@H](CC(C)C)N(C)C(=O)[C@H](CCCNC(=N)N)NC(=O)[C@@H]1CCCN1C(=O)[C@H](CCCNC(=N)N)NC(=O)[C@H](CCC(N)=O)NC(=O)[C@H](CCCNC(=N)N)NC(=O)[C@H](CCCNC(=N)N)NC(=O)[C@H](Cc1ccccc1)NC(=O)[C@@H](N)CCCCN)C(=O)NC(C)(C)C(=O)N[C@@H](Cc1ccc(Br)cc1)C(=O)O (H-KFRRQRPR[NMeL]SHKGP[Nle][Aib][Phe(4-Br)]-OH) , system Mus musculus: what Activity was measured?
Reply: 31.98

Ask: Entry CCCC[C@H](NC(=O)[C@@H]1CCCN1C(=O)CNC(=O)[C@H](CCCCN)NC(=O)[C@H](Cc1c[nH]cn1)NC(=O)[C@H](CO)NC(=O)[C@H](CC(C)C)NC(=O)[C@H](CCCNC(=N)N)NC(=O)[C@@H]1CCCN1C(=O)[C@H](CCCNC(=N)N)NC(=O)[C@@H]1CCC(=O)N1)C(=O)NC(C)(C)C(=O)N[C@@H](Cc1ccc(Br)cc1)C(=O)O , system Mus musculus: what Activity was measured?
Reply: 23.88

* * *

Reported half-life at 1000 µM values for the following molecules.
- Experiment: Stability in human plasma assessed as half life at 1 mM measured for 24 hrs by LC-MS analysis
- Format: ADME, cell-free
Non-standard residues stand in square brackets, D forms with d. Residues, ends and D or L forms follow the SMILES beside them. Phe(4-Br) = N[C@@H](Cc1ccc(Br)cc1)C(=O)O; NMeCha = CN[C@@H](CC1CCCCC1)C(=O)O; hArg = N=C(N)NCCCC[C@H](N)C(=O)O; Cha = N[C@@H](CC1CCCCC1)C(=O)O; NMeL = CN[C@@H](CC(C)C)C(=O)O; Nle = CCCC[C@H](N)C(=O)O; Aib = CC(C)(N)C(=O)O

>  <Molecule>
CCCC[C@H](NC(=O)[C@@H]1CCCN1C(=O)CNC(=O)[C@H](CCCCN)NC(=O)[C@H](Cc1c[nH]cn1)NC(=O)[C@H](CO)NC(=O)[C@H](CC(C)C)N(C)C(=O)[C@H](CCCCNC(=N)N)NC(=O)[C@@H]1CCCN1C(=O)[C@H](CCCNC(=N)N)NC(=O)[C@H](CCC(N)=O)NC(=O)[C@H](CCCNC(=N)N)NC(=O)[C@H](CCCNC(=N)N)NC(=O)[C@H](Cc1ccccc1)NC(=O)[C@@H](N)CCCCN)C(=O)NC(C)(C)C(=O)N[C@@H](Cc1ccc(Br)cc1)C(=O)O (H-KFRRQRP[hArg][NMeL]SHKGP[Nle][Aib][Phe(4-Br)]-OH)

>  <half-life at 1000 µM>
5.63 h

$$$$
>  <Molecule>
CCCC[C@H](NC(=O)[C@@H]1CCCN1C(=O)CNC(=O)[C@H](CCCCN)NC(=O)[C@H](Cc1c[nH]cn1)NC(=O)[C@H](CO)NC(=O)[C@H](CC1CCCCC1)NC(=O)[C@H](CCCCNC(=N)N)NC(=O)[C@@H]1CCCN1C(=O)[C@H](CCCNC(=N)N)NC(=O)[C@@H]1CCC(=O)N1)C(=O)NC(C)(C)C(=O)N[C@@H](Cc1ccc(Br)cc1)C(=O)O

>  <half-life at 1000 µM>
2.58 h

$$$$
>  <Molecule>
CCCC[C@H](NC(=O)[C@@H]1CCCN1C(=O)CNC(=O)[C@H](CCCCN)NC(=O)[C@H](Cc1c[nH]cn1)NC(=O)[C@H](CO)NC(=O)[C@H](CC1CCCCC1)NC(=O)[C@H](CCCNC(=N)N)NC(=O)[C@@H]1CCCN1C(=O)[C@H](CCCNC(=N)N)NC(=O)[C@H](CCC(N)=O)NC(=O)[C@H](CCCNC(=N)N)NC(=O)[C@H](CCCNC(=N)N)NC(=O)[C@H](Cc1ccccc1)NC(=O)[C@@H](N)CCCCN)C(=O)NC(C)(C)C(=O)N[C@@H](Cc1ccc(Br)cc1)C(=O)O (H-KFRRQRPR[Cha]SHKGP[Nle][Aib][Phe(4-Br)]-OH)

>  <half-life at 1000 µM>
4.34 h

$$$$

Ask: Query: half-life at 1000 µM; subject: CCCC[C@H](NC(=O)[C@@H]1CCCN1C(=O)CNC(=O)[C@H](CCCCN)NC(=O)[C@H](Cc1c[nH]cn1)NC(=O)[C@H](CO)NC(=O)[C@H](CC1CCCCC1)N(C)C(=O)[C@H](CCCCNC(=N)N)NC(=O)[C@@H]1CCCN1C(=O)[C@H](CCCNC(=N)N)NC(=O)[C@H](CCC(N)=O)NC(=O)[C@H](CCCNC(=N)N)NC(=O)[C@H](CCCNC(=N)N)NC(=O)[C@H](Cc1ccccc1)NC(=O)[C@@H](N)CCCCN)C(=O)NC(C)(C)C(=O)N[C@@H](Cc1ccc(Br)cc1)C(=O)O (H-KFRRQRP[hArg][NMeCha]SHKGP[Nle][Aib][Phe(4-Br)]-OH)
Reply: 3.41 h
